Test system: OVCAR-8
assay_remarks: NCI tumour cell line growth inhibition, 48 h
Calls of active or inactive are those of the source. Rule as the data show it: active = GI50 up to about 1.1 µM and inactive = higher.
Classes used: active, inactive

| compound | classification |
| --- | --- |
| COc1cc(NC(C)=O)ccc1C(=O)N/N=C/c1ccc(Cl)cc1Cl | inactive |
| COc1cc(/C=C/C(=N\NS(=O)(=O)c2ccc(C)cc2)c2sc(NNC(C)=O)nc2C)ccc1O | inactive |
| [N-]=[N+]=C1C(=O)C2CC3CC1CC2C3 (centres undefined) | inactive |
| COc1ccc(/C=C(/C(=O)O)c2cc(OC)c(OC)c(OC)c2)cc1 | inactive |
| COc1cc(Nc2nc3cc(C(F)(F)F)ccc3nc2C)cc(OC)c1OC | inactive |
| Cc1c(N)c(C#N)c2n(C)c3ncccc3n2c1=O | inactive |
| CC1CCCP(=O)(c2ccccc2)CCC1 (centres undefined) | inactive |
| O=c1[nH]cnc2c(COCCO)c[nH]c12 | inactive |
| COc1cc(-c2ccccc2)c(OC)cc1CCl | inactive |
| C=C1CCCC2[C@](C)(CC3=C(O)C(=O)C=C(OC)C3=O)[C@@H](C)CC[C@]12C (some centres undefined) | inactive |
| COc1cccc(CCn2c(N)c(C(=O)O)c3ccc([N+](=O)[O-])cc3c2=O)c1 | inactive |
| CCc1c(Cl)nc(Cl)nc1Cl | active |
| COc1ccc(/C=C/C(=O)c2cc(C(=O)O)c(OC)cc2OC)cc1OC | inactive |
| CC1=C(C(=O)Nc2ccccc2C)C(c2ccccc2)C(C(=O)Nc2ccccc2C)=C(C)N1 | inactive |
| CN(C)CCNc1ccc(C(=O)NCCCN(C)CCCNC(=O)c2ccc(NCCN(C)C)c3c(=O)c4ccccc4[nH]c23)c2[nH]c3ccccc3c(=O)c12 | active |
| O=C1C(=O)N(C(=O)c2ccc(Cl)c(Cl)c2)c2ccc(Cl)cc21 | inactive |
| C=C1C(C2(C)C(OC(C)=O)CC(=O)OC(C)(COC(C)=O)C2CC(=O)OC)C(OC=O)C(OC(=O)C(O)C(C)CC)C2(C)C(c3ccoc3)CC(=O)C12O (centres undefined) | inactive |
| Cc1ccc(S(=O)(=O)N2C3C=CC(C3)[C@@H]2C(Cl)(Cl)Cl)cc1 (some centres undefined) | inactive |
| CC1=CC2CC(C)=C(CC[C@]3(C)CC[C@H]([C@@H](C)C(=O)O)OO3)C(C)(C)C2CC1 (some centres undefined) | active |
| O=[N+]([O-])c1ccc(CNC2=NNS(=O)(=O)c3ccccc32)cc1 | inactive |
| CC/C(CC(=O)CCC(=O)Nc1ccc(C)c(C)c1)=N\NC(=O)c1cc2ccccc2cc1O | inactive |
| CC(=O)O[C@@]1(C)[C@@H](C)C(=O)O[C@@H]2CCN3CC=C(COC(=O)[C@]1(C)O)[C@H]23 | inactive |
| O=C1/C(=C/c2ccc(OC(=O)c3ccc(Cl)cc3)cc2)CCC/C1=C\c1ccc(OC(=O)c2ccc(Cl)cc2)cc1 | inactive |
| CCOCC(=O)N(C)c1cccc2c3c(n(C)c12)CCCCC3 | inactive |
| COC(=O)C(C(=O)Cc1ccccc1[N+](=O)[O-])C(=O)OC | inactive |
| CCOP(C)(=O)C(N)Cc1ccc(OC)c(OC)c1 (centres undefined) | inactive |
| C[N+](C)(CCNC(=O)c1cccc2cc3ccccc3nc12)Cc1ccc([N+](=O)[O-])cc1 | inactive |
| O=C(/C=C/c1ccc(Cl)cc1)c1ccc(Cl)c(Cl)c1 | inactive |
| Nc1ccc(-c2nc3ccccc3s2)cc1Br | inactive |
